Record: pIC50 reported on alpha-amylase from Aspergillus oryzae (Aspergillus oryzae).
Please treat pIC50 as minus the base-10 logarithm of the molar concentration.

Some solved cases for reference:
compound: COc1cc(CCc2cc(OC)c(O)c(OC)c2)ccc1O [Compound 2, moscatilin]
assay target: alpha-amylase from Aspergillus oryzae (Aspergillus oryzae)
pIC50: 3.59

compound: COc1cc(O)c2c(c1)CCc1cc(O)ccc1-2 [Compound 6, lusianthridin]
assay target: alpha-amylase from Aspergillus oryzae (Aspergillus oryzae)
pIC50: 3.43

compound: COc1cc2c(c(O)c1OC)-c1ccc(O)cc1CC2 [Compound 3, ephemeranthol A]
assay target: alpha-amylase from Aspergillus oryzae (Aspergillus oryzae)
pIC50: 3.55

Entry Oc1ccc2c(c1)CCc1cc(O)cc(O)c1-2 [Compound 7] has what pIC50?
3.21

Now this one: COc1cc(O)cc(CCc2ccc(O)c(OC)c2)c1 [Compound 4, gigantol]
3.48
